- TARGET_DESC: human FGFR1c together with human beta-Klotho (KLB), stably expressed on CHO Flp-In cells (human), P11362
- Sequence (P11362 22-822, chain 1 of 2): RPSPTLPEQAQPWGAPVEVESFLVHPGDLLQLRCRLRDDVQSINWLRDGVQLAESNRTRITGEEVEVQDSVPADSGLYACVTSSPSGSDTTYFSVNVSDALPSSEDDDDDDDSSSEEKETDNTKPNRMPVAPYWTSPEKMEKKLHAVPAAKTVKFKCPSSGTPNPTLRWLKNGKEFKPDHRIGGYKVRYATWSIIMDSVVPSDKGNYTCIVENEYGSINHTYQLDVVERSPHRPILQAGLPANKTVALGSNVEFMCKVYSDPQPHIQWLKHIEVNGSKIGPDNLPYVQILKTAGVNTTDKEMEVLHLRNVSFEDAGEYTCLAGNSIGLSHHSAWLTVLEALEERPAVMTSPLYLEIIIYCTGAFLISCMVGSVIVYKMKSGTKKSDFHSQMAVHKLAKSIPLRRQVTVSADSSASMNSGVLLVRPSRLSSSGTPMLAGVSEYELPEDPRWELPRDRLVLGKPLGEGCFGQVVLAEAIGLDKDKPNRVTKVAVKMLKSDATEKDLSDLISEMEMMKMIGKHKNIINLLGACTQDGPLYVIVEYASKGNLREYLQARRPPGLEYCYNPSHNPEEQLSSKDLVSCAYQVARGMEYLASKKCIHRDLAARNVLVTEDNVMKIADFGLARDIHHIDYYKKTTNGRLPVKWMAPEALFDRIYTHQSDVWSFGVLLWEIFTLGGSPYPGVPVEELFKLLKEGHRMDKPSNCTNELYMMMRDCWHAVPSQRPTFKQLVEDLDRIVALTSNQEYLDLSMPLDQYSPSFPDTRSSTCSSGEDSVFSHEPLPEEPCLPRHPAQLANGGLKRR
- Sequence (Q86Z14 whole entry, chain 2 of 2, further chain): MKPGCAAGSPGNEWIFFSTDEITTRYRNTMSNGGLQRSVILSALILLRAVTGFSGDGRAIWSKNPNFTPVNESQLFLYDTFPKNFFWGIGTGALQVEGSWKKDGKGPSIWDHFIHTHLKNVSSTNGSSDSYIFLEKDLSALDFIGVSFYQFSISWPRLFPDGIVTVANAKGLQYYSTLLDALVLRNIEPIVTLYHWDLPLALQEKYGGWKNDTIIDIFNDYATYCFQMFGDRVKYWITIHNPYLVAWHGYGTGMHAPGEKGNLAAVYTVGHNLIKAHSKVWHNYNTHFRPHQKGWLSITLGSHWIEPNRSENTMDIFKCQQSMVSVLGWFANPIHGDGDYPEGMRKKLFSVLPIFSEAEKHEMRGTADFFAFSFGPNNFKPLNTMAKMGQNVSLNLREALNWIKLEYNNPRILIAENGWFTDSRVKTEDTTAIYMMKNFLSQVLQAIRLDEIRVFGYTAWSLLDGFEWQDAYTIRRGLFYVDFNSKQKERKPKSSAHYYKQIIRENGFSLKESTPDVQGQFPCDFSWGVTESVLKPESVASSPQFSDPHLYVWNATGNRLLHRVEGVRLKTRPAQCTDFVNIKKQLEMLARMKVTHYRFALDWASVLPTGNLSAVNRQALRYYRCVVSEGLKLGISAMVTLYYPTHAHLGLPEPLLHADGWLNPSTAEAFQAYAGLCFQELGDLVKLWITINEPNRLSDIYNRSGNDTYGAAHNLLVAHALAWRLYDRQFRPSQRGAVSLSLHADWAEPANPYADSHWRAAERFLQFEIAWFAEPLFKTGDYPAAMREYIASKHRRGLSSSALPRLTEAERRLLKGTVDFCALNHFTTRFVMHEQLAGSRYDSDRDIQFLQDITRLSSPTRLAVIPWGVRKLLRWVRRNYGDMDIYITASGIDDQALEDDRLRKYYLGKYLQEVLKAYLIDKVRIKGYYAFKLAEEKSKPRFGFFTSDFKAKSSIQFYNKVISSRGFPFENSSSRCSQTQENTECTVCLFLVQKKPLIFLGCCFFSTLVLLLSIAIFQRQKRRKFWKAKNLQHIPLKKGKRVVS
- PROCEDURE_TEXT: cell-based or functional assay
MEASUREMENT_KIND: pERK ICW EC50 (nmol/L)
Unit nmol/L implied. Number only.

// worked examples, pERK ICW EC50 included
FGF21 D155N (SEQ ID NO: 129), Q9NSA1 29-209 (ligand) GHPIPDSSPLLQFGGQVRQRYLYTDDAQQTEAHLEIREDGTVGGAADQSPESLLQLKALKPGVIQILGVKTSRFLCQRPDGALYGSLHFDPEACSFRELLLEDGYNVYQSEAHGLPLHLPGNKSPHRNPAPRGPARFLPLPGLPPAPPEPPGILAPQPPDVGSSDPLSMVGPSQGRSPSYAS	0.06
FGF21 D155K (SEQ ID NO: 125), Q9NSA1 29-209 (ligand) GHPIPDSSPLLQFGGQVRQRYLYTDDAQQTEAHLEIREDGTVGGAADQSPESLLQLKALKPGVIQILGVKTSRFLCQRPDGALYGSLHFDPEACSFRELLLEDGYNVYQSEAHGLPLHLPGNKSPHRKPAPRGPARFLPLPGLPPAPPEPPGILAPQPPDVGSSDPLSMVGPSQGRSPSYAS	0.06

**Q:** Recorded pERK ICW EC50 for FGF21 K150H, P152L (SEQ ID NO: 140), Q9NSA1 29-209 (ligand) GHPIPDSSPLLQFGGQVRQRYLYTDDAQQTEAHLEIREDGTVGGAADQSPESLLQLKALKPGVIQILGVKTSRFLCQRPDGALYGSLHFDPEACSFRELLLEDGYNVYQSEAHGLPLHLPGNHSLHRDPAPRGPARFLPLPGLPPAPPEPPGILAPQPPDVGSSDPLSMVGPSQGRSPSYAS , please?
**A:** 0.13
